Cited source: PubChem BioAssay (EPA / NIEHS)

read-out: succinate dehydrogenase complex iron sulfur subunit B (SDHB), SDHB (gene 6390); test: LTEA_HepaRG_SDHB: Life Technologies and Expression Analysis (LTEA) Assay for succinate dehydrogenase complex iron sulfur subunit B (SDHB) using HepaRG (AID 2283528); details: mRNA level, 48 h; actives raise or lower the signal
The source made the active and inactive calls. Rule for the calls: active = hit-call score of the fitted dose curve at least 0.9, where 1 is the maximum; inactive = score below 0.9.
Could you please pick one outcome from this set? y for active, n for inactive

Lookup: Which outcome was entered for the compound O=C(O)Cc1ccccc1Nc1c(Cl)cccc1Cl in this test?
Found: n

Lookup: For Nc1ccccc1N , which call appears in the assay record?
Found: y

Lookup: Give the logged outcome of this assay for the following compound: CCc1c(C(=O)NN2CCCCC2)nn(-c2ccc(Cl)cc2Cl)c1-c1ccc(Br)cc1
Found: n

Lookup: # fetch the recorded call for Oc1ccc2c(c1)OC[C@@H](N1CCC(O)(c3ccc(F)cc3)CC1)[C@H]2O here
Found: n

Lookup: What did this assay record as the result for FC(F)(F)C(F)(F)C(F)(F)C(F)(F)C(F)(F)C(F)(F)CCI ?
Found: n

Lookup: Could you kindly confirm the outcome this assay logged for COC(=O)c1ccc(O)cc1 ?
Found: n

Lookup: Recorded test call requested for CCNc1cccc(C)c1
Found: n

Lookup: Identify the outcome logged in this assay for the compound shown: Cc1cccc(C)c1O
Found: n

Lookup: How did this test come out for NS(=O)(=O)c1cc2c(cc1Cl)NCNS2(=O)=O ?
Found: n

Lookup: Name the outcome recorded for CN[C@H]1CC[C@@H](c2ccc(Cl)c(Cl)c2)c2ccc(S(N)(=O)=O)cc21 in the assay.
Found: n

Lookup: Short answer needed: outcome of this test for C[Si]1(C)O[Si](C)(C)O[Si](C)(C)O[Si](C)(C)O1 ?
Found: n

Lookup: Hi, sorry to bother you, what did the test record for COc1ccc2c(c1)c(CC(=O)O)c(C)n2C(=O)c1ccc(Cl)cc1 ?
Found: n

Lookup: Please state the recorded outcome for this compound: COc1cc(C=O)ccc1O
Found: n

Lookup: Hi team, can someone confirm the assay call for Oc1ccc2ccccc2c1N=Nc1ccccc1 ?
Found: n

Lookup: Outcome? NC(=O)Cn1c(=O)cc(CCN2CCN(c3nccc4sccc34)CC2)c2ccc(F)cc21
Found: n

Lookup: Recorded test call requested for c1cc(-c2ccncc2)ccn1
Found: n

Lookup: Could you kindly confirm the outcome this assay logged for CCCCC(CC)COC(=O)CC(C(=O)OCC(CC)CCCC)S(=O)(=O)O (stereo unspecified) ?
Found: y

Lookup: Assay result, entry CC(C)c1ccc(C(=O)N=C(N)N)cc1S(C)(=O)=O — outcome?
Found: n

Lookup: Tell me the recorded outcome of this test for CCCCCCCCCCCCCO .
Found: n

Lookup: I'd appreciate the recorded outcome for Cc1ccc(C(C)C)c(O)c1 from this test.
Found: n

Lookup: Could you check what this test reported for C=CCc1ccc(O)c(OC)c1 ?
Found: n

Lookup: // param item: CCCCCCCC=O ; yields the recorded call
Found: n

Lookup: // return assay outcome for O=c1c(O)c(-c2ccc(O)c(O)c2)oc2cc(O)cc(O)c12
Found: n

Lookup: Dear colleague, could you share the recorded outcome for Clc1cc(Cl)c(Cl)cc1Cl when you have a moment?
Found: n

Lookup: Call for entry CCOc1ccc2c(c1)C(C)=CC(C)(C)N2 :
Found: n

Lookup: Hi, sorry to bother you, what did the test record for CC(=O)C(C)=CC1C(C)=CCCC1(C)C (stereo unspecified) ?
Found: n

Lookup: So what was the verdict on CC(CO)OC(C)CO (stereo unspecified) (tested in a mixture with another compound) in this test?
Found: n

Lookup: Please indicate how the test categorized Cc1cc(=O)[nH]c(=S)[nH]1 .
Found: n

Lookup: Per the records of this test, what outcome belongs to OC[C@@H](O)[C@@H](O)[C@H](O)[C@H](O)CO ?
Found: n

Lookup: Just curious, what result did CCCCCCC(=O)OCC get here?
Found: n

Lookup: Hey, what did the test say about CCOC(=O)C(C)(C)Oc1ccc(Cl)cc1 ?
Found: n

Lookup: For Cc1ccc(Cl)cc1 , which call appears in the assay record?
Found: n

Lookup: // outcome(item) with item = O=c1[nH]cc(F)c(=O)[nH]1
Found: n

Lookup: What classification did C=CCOC(=O)c1ccccc1C(=O)OCC=C end up with in this test?
Found: n

Lookup: What is the recorded call for this compound in the test? Cc1nc(-c2ccc3c(c2)CCN(CCC2CCC(NC(=O)/C=C/c4ccc(F)cc4)CC2)CC3)no1 (stereo unspecified)
Found: n

Lookup: Per the assay record, what outcome was assigned to CCCCCCOCCO ?
Found: n

Lookup: What was the test verdict on COc1cc(-c2nc(NC(=O)c3cc4cc(C)cc(C)c4n3CC(=O)O)sc2CCC2CCCCC2)c(OC)cc1Cl ?
Found: y

Lookup: Could you kindly confirm the outcome this assay logged for O=C(O)CCCCC(=O)O ?
Found: n

Lookup: Just curious, what result did Cc1ccc(N(C)C)cc1 get here?
Found: n

Lookup: In this assay, the call recorded for CC1(C)NC(=O)NC1=O was what?
Found: n

Lookup: Dear colleague, could you share the recorded outcome for CCCCCCCCCCCC(=O)OC when you have a moment?
Found: n

Lookup: Hi team, can someone confirm the assay call for COCCOCCOC ?
Found: y

Lookup: Fill in: this test's call for NCC1(Cc2noc(=O)[nH]2)CCCCC1 is ___
Found: n

Lookup: What classification did COc1cc(S(=O)(=O)O)c(C)cc1N=Nc1c(O)ccc2cc(S(=O)(=O)O)ccc12 end up with in this test?
Found: n

Lookup: Dear colleague, could you share the recorded outcome for CCCCCCCCCCCCCCCCCC(=O)O when you have a moment?
Found: n

Lookup: Just curious, what result did Cc1c(C(=O)O)c(O)cc2c1C(=O)c1c(O)c([C@@H]3O[C@H](CO)[C@@H](O)[C@H](O)[C@H]3O)c(O)c(O)c1C2=O get here?
Found: n

Lookup: Name the outcome recorded for Nc1ccc2c(c1)C(=O)c1ccccc1C2=O in the assay.
Found: n

Lookup: Can you look up the reported call for CCCCCCCCCCO for me?
Found: n

Lookup: What is the recorded call for this compound in the test? C1CCC(SSC2CCCCC2)CC1
Found: n

Lookup: Returns: the outcome recorded for C[C@]12C=CC(=O)C=C1CC[C@@H]1[C@@H]2C(=O)C[C@@]2(C)[C@H]1CC[C@]2(O)C(=O)CO in this assay.
Found: n

Lookup: Per the assay record, what outcome was assigned to CC(C)(C)c1cc(O)c(C(C)(C)C)cc1O ?
Found: n

Lookup: Kindly provide the recorded test outcome for the following compound: Nc1ccc(S(=O)(=O)c2ccc(N)cc2)cc1
Found: n

Lookup: Give the logged outcome of this assay for the following compound: Cc1ccc(C)c(O)c1C
Found: n

Lookup: GET /call?item= COc1ccc(S(=O)(=O)N2C(=O)[C@@](c3ccccc3OC)(N3C[C@H](O)C[C@H]3C(=O)N(C)C)c3cc(Cl)ccc32)c(OC)c1 returns the recorded outcome of this test.
Found: y

Lookup: Field: outcome | Entry: CC1(C)CC(N=C=O)CC(C)(CN=C=O)C1 (stereo unspecified)
Found: n

Lookup: // outcome(item) with item = CCCc1cc(=O)[nH]c(=S)[nH]1
Found: n
